system.name: DLL3 endogenously expressed on NCI-H82 cells (UniProt Q9NYJ7)
Sequence (Q9NYJ7 27-618): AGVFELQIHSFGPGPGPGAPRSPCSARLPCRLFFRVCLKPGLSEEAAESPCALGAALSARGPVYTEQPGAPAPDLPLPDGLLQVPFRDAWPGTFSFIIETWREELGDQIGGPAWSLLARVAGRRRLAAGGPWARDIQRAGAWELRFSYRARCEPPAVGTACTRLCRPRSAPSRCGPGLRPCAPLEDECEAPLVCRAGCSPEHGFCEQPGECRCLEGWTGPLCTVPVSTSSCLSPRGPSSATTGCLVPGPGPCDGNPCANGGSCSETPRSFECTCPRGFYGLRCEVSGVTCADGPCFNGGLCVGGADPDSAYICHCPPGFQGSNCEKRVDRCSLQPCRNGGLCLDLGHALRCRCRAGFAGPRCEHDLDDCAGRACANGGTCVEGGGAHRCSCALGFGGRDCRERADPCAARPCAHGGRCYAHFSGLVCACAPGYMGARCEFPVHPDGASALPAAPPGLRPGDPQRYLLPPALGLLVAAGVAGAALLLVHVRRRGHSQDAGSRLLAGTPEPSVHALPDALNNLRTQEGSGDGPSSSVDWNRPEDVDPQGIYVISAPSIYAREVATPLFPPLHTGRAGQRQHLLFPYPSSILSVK
measurement.protocol: FACS on NCI-H82 cells; antibody 0.0064 nM
experimental.endpoint: MFI
Answer field: number only, no words.

{"binder": "Hab015VL4VH1a-hFc (scFv, part only; not given: scFv linker and human IgG1 Fc, V domains shown, not shown: another chain or arm of the molecule; a dimerising Fc or GST; small tags and cut ends) VL: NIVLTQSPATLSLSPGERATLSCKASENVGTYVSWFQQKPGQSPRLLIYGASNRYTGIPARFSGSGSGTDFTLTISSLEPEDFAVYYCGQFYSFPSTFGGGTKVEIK VH: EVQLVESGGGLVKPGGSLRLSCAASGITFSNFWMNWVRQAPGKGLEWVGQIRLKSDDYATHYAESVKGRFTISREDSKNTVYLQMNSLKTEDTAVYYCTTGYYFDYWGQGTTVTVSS", "readout.value": 137}
{"binder": "Hab014VL1VH2-hFc (scFv, part only; not given: VL-VH linker and human IgG1 Fc, V domains shown, not shown: another chain or arm of the molecule; a dimerising Fc or GST; small tags and cut ends) VL: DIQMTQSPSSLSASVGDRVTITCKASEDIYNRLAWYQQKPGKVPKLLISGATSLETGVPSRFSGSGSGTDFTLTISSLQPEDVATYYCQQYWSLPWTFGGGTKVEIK VH: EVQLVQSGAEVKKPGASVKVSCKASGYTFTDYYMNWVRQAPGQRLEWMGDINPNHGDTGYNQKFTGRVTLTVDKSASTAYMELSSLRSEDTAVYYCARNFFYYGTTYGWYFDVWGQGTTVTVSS", "readout.value": 130}
{"binder": "Hab006VL4VH1-hFc (scFv, part only; not given: scFv linker and human IgG1 Fc, V domains shown, not shown: another chain or arm of the molecule; a dimerising Fc or GST; small tags and cut ends) VL: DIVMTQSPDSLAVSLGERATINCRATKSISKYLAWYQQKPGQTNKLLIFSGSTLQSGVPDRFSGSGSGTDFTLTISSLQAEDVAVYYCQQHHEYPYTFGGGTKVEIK VH: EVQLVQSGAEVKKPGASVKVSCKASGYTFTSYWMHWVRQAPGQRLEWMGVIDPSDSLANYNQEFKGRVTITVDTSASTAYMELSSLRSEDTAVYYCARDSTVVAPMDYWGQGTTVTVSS", "readout.value": 157}
{"binder": "Hab006VL4VH2-hFc (Fc fusion, part only; not given: Linker and human IgG1 Fc, not shown: a dimerising Fc or GST) chain, part: DIVMTQSPDSLAVSLGERATINCRATKSISKYLAWYQQKPGQTNKLLIFSGSTLQSGVPDRFSGSGSGTDFTLTISSLQAEDVAVYYCQQHHEYPYTFGGGTKVEIKEVQLVQSGAEVKKPGASVKVSCKASGYTFTSYWMHWVRQAPGQRLEWMGVIDPSDSLANYNQEFKGRVTLTVDTSASTAYMELSSLRSEDTAVYYCARDSTVVAPMDYWGQGTTVTVSS", "readout.value": 151}

# ---- query binder ----
Query Hab009VL1aVH1-hFc (Fc fusion, part only; not given: Linker and human IgG1 Fc, not shown: a dimerising Fc or GST) chain, part: DIVMTQSPLSLPVTPGEPASISCRASQTISDYLHWYLQKPGQSPQLLIKYASQSISGVPDRFSGSGSGSDFTLKISRVEAEDVGVYYCQQGHSFPLTFGQGTKLEIKEVQLVQSGAEVKKPGASVKVSCKASGYTFTSYWMHWVRQAPGQRLEWMGTIYPGNSDTRYNQKFKDRVTITADTSASTAYMELSSLRSEDTAVYYCTRSYDYGDLDYWGQGTTVTVSS yields MFI of 180

Data provenance is patent EP4786492A1.
